System: HSkMC
Assay: cytotoxicity call (relative viability < 0.9)
Details: 10 µM
Among all 39,000 compounds or so, about 1,500 (3.8%) were called active. Many of the other results were omitted from the sample, so actives are more common in it than they were.
Please reply with one of these outcomes: yes = active, no = inactive

These solved cases illustrate the format of a correct answer.
- C[C@H]1CN([C@@H](C)CO)C(=O)c2cc(NC(=O)NC3CCCCC3)ccc2O[C@H]1CN(C)S(=O)(=O)c1cn(C)cn1: no
- C[C@H](CO)N1C[C@H](C)[C@H](CN(C)S(=O)(=O)c2cn(C)cn2)Oc2cc(C#Cc3cccc(F)c3)ccc2S1(=O)=O: no
- COc1ccc(NC(=O)Nc2ccc3c(c2)C(=O)N([C@@H](C)CO)C[C@H](C)[C@@H](CN(C)C(=O)c2ccccc2)OCCCC[C@H](C)O3)cc1: no

Given COc1cc(N2CCC(N3CCN(C)CC3)CC2)ccc1Nc1ncc(Cl)c(Nc2ccccc2S(=O)(=O)C(C)C)n1 , state the outcome it received in this test.
yes

Call for entry C=CC[C@H](CC(=O)N(CCO)Cc1ccccc1)C(=O)N[C@@H](COC(=O)[C@@H](CC=C)CC(=O)OC(C)(C)C)Cc1c[nH]c2ccccc12 :
no

Given C=CC[C@@H](CC(=O)N(CCO)Cc1ccccc1)C(=O)N[C@@H](COC(=O)[C@H](CC=C)CC(=O)OC(C)(C)C)Cc1c[nH]c2ccccc12 , state the outcome it received in this test.
no

For C=CC[C@@H](CC(=O)N(CCO)Cc1ccccc1)C(=O)N[C@H](COC(=O)[C@@H](CC=C)CC(=O)OC(C)(C)C)Cc1c[nH]c2ccccc12 , what call appears in the results of this test?
no

Please let me know the test result on file for C=CC[C@H](CC(=O)N(CCO)Cc1ccccc1)C(=O)N[C@H](COC(=O)[C@H](CC=C)CC(=O)OC(C)(C)C)Cc1c[nH]c2ccccc12 .
no

What is the recorded call for this compound in the test? C=CC[C@H](CC(=O)N(CCO)Cc1ccccc1)C(=O)N[C@H](COC(=O)[C@@H](CC=C)Cc1ccc(F)cc1)Cc1c[nH]c2ccccc12
no

====

Tested on: HSkMC
Assay: cytotoxicity call (relative viability < 0.9)
Conditions: 10 µM
Out of some 39,000 compounds screened, about 1,500 (3.8%) were called active. The sample holds actives, similar compounds and a random draw of the others, so the mix is not that of the screen.
MEASURED_ENDPOINT: cytotoxicity call

* C[C@@H]1CN([C@H](C)CO)C(=O)c2cc(NC(=O)Nc3ccccc3)ccc2O[C@H]1CN(C)Cc1ccc(-c2ccccc2)cc1 | inactive
* C[C@H]1CN([C@@H](C)CO)C(=O)c2cc(NC(=O)Nc3ccc(F)cc3)ccc2O[C@@H]1CN(C)Cc1ccc(-c2ccccc2)cc1 | inactive
* C[C@@H]1CN([C@@H](C)CO)C(=O)c2cc(NC(=O)Nc3ccccc3)ccc2O[C@@H]1CN(C)Cc1ccc(-c2ccccc2)cc1 | active
* C[C@@H]1CN([C@@H](C)CO)C(=O)c2cc(NC(=O)Nc3ccc(F)cc3)ccc2O[C@@H]1CN(C)Cc1ccc(-c2ccccc2)cc1 | active

====

Tested on: HSkMC
Test: cytotoxicity call (relative viability < 0.9)
Conditions: 10 µM
About 1,500 (3.8%) of roughly 39,000 compounds were called active. Shown is part of a subset that was picked to be rich in actives.
Use one of these outcomes when replying: active, inactive

// below: answered compounds
* C[C@H](CO)N1C[C@H](C)[C@H](CN(C)C(=O)Nc2cccc3ccccc23)Oc2c(NC(=O)Nc3ccc(C(F)(F)F)cc3)cccc2C1=O | inactive
* COc1cccc2c1C(=O)c1c(O)c3c(c(O)c1C2=O)C[C@](O)(C(=O)CO)C[C@H]3O[C@H]1C[C@@H](N)[C@@H](O)[C@@H](C)O1 | active
* COc1cccc2c1C(=O)c1c(O)c3c(c(O)c1C2=O)C[C@@](O)(C(=O)CO)C[C@@H]3O[C@H]1C[C@H](N)[C@@H](O)[C@H](C)O1 | inactive
* CO[C@H]1CN(C)C(=O)c2ccc(NS(=O)(=O)c3cn(C)cn3)cc2OC[C@@H](C)N(CC2CC2)C[C@@H]1C | inactive
* C[C@@H]1CN([C@@H](C)CO)C(=O)c2cccc(NC(=O)Nc3ccc(C(F)(F)F)cc3)c2O[C@@H]1CN(C)C(=O)Nc1cccc2ccccc12 | active

Write down the call the test reported for this compound. Item: C[C@@H]1CN([C@@H](C)CO)C(=O)Cc2cc(NC(=O)Nc3ccc(C(F)(F)F)cc3)ccc2O[C@@H]1CN(C)Cc1ccc(Oc2ccccc2)cc1
active

====

Tested on: HSkMC
Test: cytotoxicity call (relative viability < 0.9)
Settings: 10 µM
In all, about 39,000 compounds went through this assay and about 1,500 (3.8%) were called active. The sample holds actives, similar compounds and a random draw of the others, so the mix is not that of the screen.
Field 'call' accepts active, inactive

- COc1ccc(S(=O)(=O)Nc2ccc3c(c2)C(=O)N([C@H](C)CO)C[C@H](C)[C@H](CN(C)S(=O)(=O)c2cn(C)cn2)OCCCC[C@H](C)O3)cc1: inactive
- C[C@H](CO)N1C[C@H](C)[C@H](CN(C)CC2CCCCC2)Oc2ccc(NC(=O)Nc3ccc(C(F)(F)F)cc3)cc2CC1=O: active
- Cc1ccc(-c2cnc(-c3ccc(Br)cc3)o2)cc1: inactive
- C[C@@H]1CN([C@H](C)CO)C(=O)c2cc(NC(=O)Nc3ccc(C(F)(F)F)cc3)ccc2O[C@@H](C)CCCCO[C@@H]1CN(C)C(=O)c1ccccc1: active

Which result was noted for this molecule in the test: C[C@@H]1CN([C@@H](C)CO)C(=O)Cc2cc(NC(=O)Nc3ccc(C(F)(F)F)cc3)ccc2O[C@@H]1CN(C)CC1CCCCC1
inactive

Could you check what this test reported for C[C@@H]1CN([C@@H](C)CO)C(=O)Cc2cc(NC(=O)Cn3cnnn3)ccc2O[C@H]1CN(C)S(=O)(=O)c1cn(C)cn1 ?
inactive

Can you look up the reported call for C[C@@H]1CN([C@H](C)CO)C(=O)Cc2cc(NC(=O)Nc3ccc(F)cc3)ccc2O[C@H]1CN(C)CC1CCCCC1 for me?
inactive

====

System: HSkMC (human skeletal muscle cells)
Assay: cytotoxicity call (relative viability < 0.9)
Settings: 10 µM
Out of some 39,000 compounds screened, about 1,500 (3.8%) were called active. The entries come from a sample that favours actives as a whole.
Choose the fitting class; nothing outside active, inactive is accepted.

• COc1ccc(NC(=O)Nc2ccc3c(c2)CC(=O)N([C@H](C)CO)C[C@@H](C)[C@@H](CN(C)Cc2ccc(Cl)c(Cl)c2)O3)cc1 = active

For COCC#Cc1cnc2c(c1)C(=O)N([C@@H](C)CO)C[C@@H](C)[C@H](CN(C)C(=O)c1cnccn1)O2 , which call appears in the assay record?
inactive

Could you please tell me the result logged for C[C@H](CO)N1C[C@H](C)[C@@H](CN(C)C(=O)Nc2ccc(F)cc2)Oc2ccc(NC(=O)C3CC3)cc2CC1=O in this assay?
inactive

Hi, do you know how C[C@H]1CCCCO[C@H](CN(C)C(=O)C2CCCCC2)[C@@H](C)CN([C@@H](C)CO)C(=O)c2cc(NC(=O)Nc3ccc(C(F)(F)F)cc3)ccc2O1 came out in this test?
active

Give the logged outcome of this assay for the following compound: COc1ccc(NC(=O)Nc2ccc3c(c2)CC(=O)N([C@@H](C)CO)C[C@@H](C)[C@H](CN(C)Cc2ccc(Cl)c(Cl)c2)O3)cc1
inactive

For CC(C)NC(=O)N(C)C[C@H]1OCCCC[C@H](C)Oc2ccc(NC(=O)Nc3ccc(C(F)(F)F)cc3)cc2C(=O)N([C@H](C)CO)C[C@@H]1C , what call appears in the results of this test?
inactive

Identify the outcome logged in this assay for the compound shown: C=C1CCC=C(C)CCC2C1CC2(C)C.O (single isomer, unassigned; (-)) [(-)E-CARYOPHYLLENE hydrate ]
inactive

Per the assay record, what outcome was assigned to COCCNCc1ccc(-c2cc3nccc(Oc4ccc(NC(=S)NC(=O)Cc5ccc(F)cc5)cc4F)c3s2)nc1 ?
active

What outcome does the record of this test show for COc1ccc(NC(=O)Nc2ccc3c(c2)CC(=O)N([C@@H](C)CO)C[C@H](C)[C@H](CN(C)Cc2ccc(Cl)c(Cl)c2)O3)cc1 ?
active

In this assay, the call recorded for COc1ccc(NC(=O)Nc2ccc3c(c2)CC(=O)N([C@H](C)CO)C[C@@H](C)[C@H](CN(C)Cc2ccc(Cl)c(Cl)c2)O3)cc1 was what?
inactive

What classification did Cc1cc(C(=O)Nc2cccc3c2O[C@H](CN(C)Cc2ccc4c(c2)OCO4)[C@@H](C)CN([C@@H](C)CO)C3=O)n(C)n1 end up with in this test?
inactive

Hi, sorry to bother you, what did the test record for O=c1ccoc2cc(O)c([C@H]3O[C@H](CO)[C@@H](O)[C@H](O)[C@@H]3O)c(O)c12 ?
inactive

Just curious, what result did CC(C)NC(=O)N(C)C[C@@H]1OCCCC[C@H](C)Oc2ccc(NC(=O)Nc3ccc(C(F)(F)F)cc3)cc2C(=O)N([C@@H](C)CO)C[C@H]1C get here?
inactive

Which outcome was assigned to COc1ccc(NC(=O)Nc2ccc3c(c2)CC(=O)N([C@H](C)CO)C[C@H](C)[C@H](CN(C)Cc2ccc(Cl)c(Cl)c2)O3)cc1 in this test?
inactive
